- Test system: Rattus norvegicus
- Assay protocol: Ratio of sodium ion/potassium ion concentration in treated rats to that in control rats, at a peroral dose of 0.1 mg/Kg
- Assay type: functional
Readout type: Na+/K+

Example results:
CCCn1c(=O)c2[nH]c(C3CCCC3)nc2n(CCC)c1=O: 1.54
CCCn1c(=O)c2nc(C34CC5CC(CC3C5)C4)[nH]c2n(CCC)c1=O [ROLOFYLLINE]: 1.9

Observed Na+/K+ on Rattus norvegicus, entry CCn1c(=O)c2nc(C(C3CC3)C3CC3)[nH]c2n(CC)c1=O , equals 1.37

Observed Na+/K+ on Rattus norvegicus, entry CCn1c(=O)c2nc(C3CCCC3)[nH]c2n(CC)c1=O , equals 1

Observed Na+/K+ on Rattus norvegicus, entry CCCCn1c(=O)c2nc(C34CC5CC(CC3C5)C4)[nH]c2n(CCCC)c1=O , equals 1.58

Observed Na+/K+ on Rattus norvegicus, entry CC(C)Cn1c(=O)n(C)c(=O)c2[nH]c(C(C3CC3)C3CC3)nc21 , equals 2.13

Observed Na+/K+ on Rattus norvegicus, entry CC(C)Cn1c(=O)n(C)c(=O)c2[nH]c(C3CCCC3)nc21 , equals 1.55

---

- Test system: Rattus norvegicus
- Assay protocol: Ratio of sodium ion/potassium ion concentration in treated rats to that in control rats, at a peroral dose of 1.6 mg/Kg
- Format: functional
Reported Na+/K+ values are given for each entry in this list.
Output spec: single numeric token, no unit.

// recorded Na+/K+ for CCCn1c(=O)c2c(nc(C(C3CC3)C3CC3)n2C)n(CCC)c1=O : 1.21

// recorded Na+/K+ for CCCn1c(=O)c2nc(C34CC5CC(CC3C5)C4)[nH]c2n(CCC)c1=O [ROLOFYLLINE] : 1.93

// recorded Na+/K+ for CCn1c(=O)c2nc(C34CC5CC(CC3C5)C4)[nH]c2n(CC)c1=O : 1.97

// recorded Na+/K+ for NS(=O)(=O)c1cc(C(=O)O)c(NCc2ccco2)cc1Cl [FUROSEMIDE] : 0.87

// recorded Na+/K+ for CCn1c(=O)c2nc(C3CCCC3)[nH]c2n(CC)c1=O : 1.56

---

Here's what we have: log10(Ki) numbers for Adenosine A2 receptor (Rattus norvegicus, UniProt P29276+P30543).
Hello, just confirming the data are log10 of Ki with units of nM.

CCCCn1c(=O)c2nc(C(C3CC3)C3CC3)[nH]c2n(CCCC)c1=O: 2.64

// recorded log10(Ki) for CCCn1c(=O)c2nc(C3CC4CCC3C4)[nH]c2n(CCC)c1=O (stereo in doubt; 19) : 2.64

// recorded log10(Ki) for CCCn1c(=O)c2c(nc(C(C3CC3)C3CC3)n2C)n(CCC)c1=O : 4.46

// recorded log10(Ki) for CCCn1c(=O)c2nc(C34CC5CC(CC3C5)C4)[nH]c2n(CCC)c1=O : 2.58

// recorded log10(Ki) for CCCn1c(=O)c2nc(C3CC4CCC3C4)[nH]c2n(CCC)c1=O (stereo in doubt; 20) : 2.46

// recorded log10(Ki) for CCCn1c(=O)c2c(nc(C(C3CC3)C3CC3)n2CC)n(CCC)c1=O : 4.15

// recorded log10(Ki) for Cn1c(=O)c2nc(C(C3CC3)C3CC3)[nH]c2n(C)c1=O : 3.43

// recorded log10(Ki) for CCCCn1c(=O)c2nc(C34CC5CC(CC3C5)C4)[nH]c2n(CCCC)c1=O : 3.04

// recorded log10(Ki) for FC(F)(F)c1nnc2c(NC3CCCC3)nc3ccc(Cl)cc3n12 : 2.85

src = ChEMBL document CHEMBL1125524
